Kindly supply the reported IC50 values for the records listed here.
# System: haem polymerization
# methodNotes: haem polymerization inhibitory activity (HPIA) assay
# Type: biochemical
# experimentalContext: haematin, pH 2.6, 37 °C, 24 h; read-out: IC50, inhibition of haem polymerization formation
Numbers only, in nM.

>>> endpointvalue("CCN(CC)CCCC(C)Nc1ccnc2cc(Cl)ccc12 (centres unmarked) [chloroquine, reference compound]")
18

# input for lookup
// query Which value of IC50 has been reported for CC1CCC2C(C)C(=O)OC3OC4(C)CCC1C32OO4 (single isomer, unassigned; (-)) [compound 2, (−)-6-epi-artemisinin] in the records?
// result 3.5

* * *

# System: Vero E6 cells
# experimentalContext: read-out: CC50, cytotoxicity against Vero E6 cells; CCK8
measuredMetric: CC50

>>> endpointvalue("CC1CCC2C(C)C(=O)OC3OC4(C)CCC1C32OO4 (single isomer, unassigned; (-)) [compound 2, (−)-6-epi-artemisinin]")
"> 250 µM"

# input for lookup
// query Which value of CC50 has been reported for CC1CCC2C(C)C(=O)OC3OC4(C)CCC1C32OO4 (centres unmarked) [compound 3, 9 epimer of 2] in the records?
// result > 200 µM

* * *

# methodNotes: in vitro
# experimentalContext: African green monkey, CC50, cytotoxicity against Vero E6 cells, CCK8
measuredMetric: CC50

// query Which value of CC50 has been reported for CC1CCC2C(C)C(=O)OC3OC4(C)CCC1C32OO4 (single isomer, unassigned; (-)) [compound 2, (−)-6-epi-artemisinin] in the records?
// result > 200 µM

* * *

# Tested on: W2 apoptotic competent and D3 apoptotic deficient mouse epithelial cell lines
# methodNotes: apoptosis induction assay (MTT, W2 vs D3 cells)
# Format: cell-based
# experimentalContext: Mus musculus, Epithelial cell, 48 h, read-out: IC50, induction of apoptosis, W2/D3 cells, 48 h, MTT
measuredMetric: pIC50
Answers are plain numbers, as −log10 of the molar value.

// query Which value of pIC50 has been reported for CC1CCC2C(C)C(=O)OC3OC4(C)CCC1C32OO4 (single isomer, unassigned; (-)) [compound 2, (−)-6-epi-artemisinin] in the records?
// result 5.00
